System: colistin-resistant P. aeruginosa isolated from cystic fibrosis patients
Details: colistin-resistant isolated from cystic fibrosis patients
Peptide text beside a SMILES is read from it.
Endpoint label: MIC50 (µM)
Answer in µM, number only, no unit symbol.

# input compound: CC[C@H](C)[C@H](NC(=O)[C@H](Cc1c[nH]c2ccccc12)NC(=O)[C@H](CCCCN)NC(=O)[C@H](CCCCN)NC(=O)[C@@H](NC(=O)[C@H](CCCNC(=N)N)NC(=O)[C@H](CCCNC(=N)N)NC(=O)[C@@H](NC(=O)[C@@H](N)Cc1c[nH]c2ccccc12)[C@@H](C)CC)[C@@H](C)CC)C(=O)N[C@@H](CCCNC(=N)N)C(=O)N[C@@H](CCCNC(=N)N)C(=O)N[C@H](C(=O)N[C@@H](Cc1c[nH]cn1)C(=O)N[C@@H](CCCCN)C(=O)O)C(C)C [RR2] (H-WIRRIKKWIRRVHK-OH; N-terminus and C-terminus assumed) ; wanted: its MIC50
32
